B1: SMG5 (parent)
chain: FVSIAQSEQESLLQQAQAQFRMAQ

Variants of: B1
test-protocol: protein stability index of a GFP-peptide fusion (GPS, HEK-293T) (PSI 1-6); higher = more stable;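 note: lentivirally expressed fusions sorted by FACS into six bins by GFP to DsRed ratio, PSI derived from sequencing read proportions per bin multiplied by bin number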
condition-set: c terminus: a fixed tail appended
Classify by measured protein stability index: satisfied if it is equal to or exceeds 2, not satisfied if it is smaller.

Determine whether measured protein stability index meets or exceeds 2 for FVSIAQSEQESLLQQAQAQFRPAQ [M22P]
satisfied

Determine whether measured protein stability index meets or exceeds 2 for FVSIAQSEQESLLQQAQSQFRMAQ [A18S]
satisfied

Determine whether measured protein stability index meets or exceeds 2 for FVSIAQSEQFSLLQQAQAQFRMAQ [E10F]
satisfied

Determine whether measured protein stability index meets or exceeds 2 for FVSIAQSEQESLLQQADAQFRMAQ [Q17D]
satisfied

Determine whether measured protein stability index meets or exceeds 2 for AVSIAQSEQESLLQQAQAQFRMAQ [F1A]
satisfied

Determine whether measured protein stability index meets or exceeds 2 for FVKIAQSEQESLLQQAQAQFRMAQ [S3K]
satisfied

Determine whether measured protein stability index meets or exceeds 2 for FVSIAQFEQESLLQQAQAQFRMAQ [S7F]
satisfied

Determine whether measured protein stability index meets or exceeds 2 for FVSIAQSEQESLLQDAQAQFRMAQ [Q15D]
satisfied

Determine whether measured protein stability index meets or exceeds 2 for FVSIAQSEQESILQQAQAQFRMAQ [L12I]
satisfied

Determine whether measured protein stability index meets or exceeds 2 for FVSIAQSEQESLLQQAFAQFRMAQ [Q17F]
not satisfied

Determine whether measured protein stability index meets or exceeds 2 for FVSIAQSEQESLLQQAQAQFRMCQ [A23C]
satisfied

Determine whether measured protein stability index meets or exceeds 2 for FVSIAQSEQMSLLQQAQAQFRMAQ [E10M]
not satisfied

Determine whether measured protein stability index meets or exceeds 2 for FVSIAQSEQESLLCQAQAQFRMAQ [Q14C]
not satisfied

Determine whether measured protein stability index meets or exceeds 2 for FVSIAQSEQESLLQRAQAQFRMAQ [Q15R]
satisfied

Determine whether measured protein stability index meets or exceeds 2 for FVSFAQSEQESLLQQAQAQFRMAQ [I4F]
satisfied

Determine whether measured protein stability index meets or exceeds 2 for FVSIAQSEQESLLQQAQAQFRMAN [Q24N]
satisfied

Determine whether measured protein stability index meets or exceeds 2 for FVSIAQSEQESLLQQAQAQFHMAQ [R21H]
satisfied

Determine whether measured protein stability index meets or exceeds 2 for FVSIAQSEQESKLQQAQAQFRMAQ [L12K]
satisfied

Determine whether measured protein stability index meets or exceeds 2 for FVSIAQSEQESLLQQAQAQFYMAQ [R21Y]
satisfied

Determine whether measured protein stability index meets or exceeds 2 for FVSIASSEQESLLQQAQAQFRMAQ [Q6S]
satisfied

Determine whether measured protein stability index meets or exceeds 2 for FVSIAQSEQESLLQQIQAQFRMAQ [A16I]
satisfied

Determine whether measured protein stability index meets or exceeds 2 for FVSIAQSEQWSLLQQAQAQFRMAQ [E10W]
satisfied

Determine whether measured protein stability index meets or exceeds 2 for FVSIAQSEQESLLQQAQAQFLMAQ [R21L]
satisfied

Determine whether measured protein stability index meets or exceeds 2 for FVSIAQSEQESLLQQAQAQFRMAM [Q24M]
not satisfied

Determine whether measured protein stability index meets or exceeds 2 for FVSIAQSEQESLLQQAQAQFRMAS [Q24S]
satisfied

Determine whether measured protein stability index meets or exceeds 2 for FVSIAQSEQESLLQQAQAQFRMLQ [A23L]
satisfied

Determine whether measured protein stability index meets or exceeds 2 for FVYIAQSEQESLLQQAQAQFRMAQ [S3Y]
not satisfied

Determine whether measured protein stability index meets or exceeds 2 for FVSIAQSEQESLLIQAQAQFRMAQ [Q14I]
satisfied

Determine whether measured protein stability index meets or exceeds 2 for FVSIAQSEQESLLQQAQAQFRMHQ [A23H]
satisfied

Determine whether measured protein stability index meets or exceeds 2 for FVSIAQSEQETLLQQAQAQFRMAQ [S11T]
satisfied

Determine whether measured protein stability index meets or exceeds 2 for FVSIAQSEQESLLQQAQAQFCMAQ [R21C]
not satisfied

Values from the supplement of paper PMC10567573
